experiment: Pharmacokinetics of Compound 1 in combination with MK-3475 in subjects with various cancers
Format: in vivo, human
measurement_context: human, plasma, oral, 100 mg BID, Diagnosis MEL, steady state C1D8, geometric mean; read-out: AUC0-12 h (converted)
experimental_endpoint: AUC(0-t) (µM·h)
Note: unit µM·h is implicit; provide only the numeric part.

Looking for the measured AUC(0-t) of NS(=O)(=O)NCCNc1nonc1C(=NO)Nc1ccc(F)c(Br)c1 , can you help?
3.57

###

experiment: Dose-escalation study of Compound 1 pharmacokinetics in subjects with advanced malignancies (tablets of Formulations 1 and/or 3, fasted; food effect cohort)
Type: in vivo, human
measurement_context: human, plasma, oral, 600 mg, 600 mg BID, Fed (high-fat meal), geometric mean; read-out: AUC0-12 h
experimental_endpoint: AUC(0-t) (µM·h)
Note: unit µM·h is implicit; provide only the numeric part.

Looking for the measured AUC(0-t) of NS(=O)(=O)NCCNc1nonc1C(=NO)Nc1ccc(F)c(Br)c1 , can you help?
25.8
